experiment: Elimination half life in dog liver microsomes measured after 1 hr; type: ADME, Canis lupus familiaris, Microsome; conditions: read-out: beta t1/2
measurement.label: half-life (min)
Write the value in min as a bare number.

Specify half-life for NC(=O)c1cccc2cc(C(=O)N3CCN(c4nc(-c5cnc(NC(=O)CN6CCOCC6)cc5C(F)(F)F)nc(N5CCOCC5)n4)CC3)oc12 and stop.
47.3

* * *

assay: Elimination rate constant in mouse liver microsomes measured after 1 hr; format: ADME, Microsome
measurement.label: k el at 1 h (s⁻¹)
Respond with the bare value in s⁻¹.

Using the record for NC(=O)c1cccc2cc(C(=O)N3CCN(c4nc(-c5cnc(NC(=O)CN6CCOCC6)cc5C(F)(F)F)nc(N5CCOCC5)n4)CC3)oc12 , state its measured k el at 1 h.
0.000663

* * *

assay: Intrinsic clearance in monkey liver microsomes measured after 1 hr; assay type: ADME, Macaca mulatta, Microsome; details: rhesus monkey, read-out: CLH
measurement.label: microsomal CLint (µL/min/mg)
Hi! Could you send only the number? It should be in µL/min/mg, unit omitted.

Give the measured microsomal CLint for NC(=O)c1cccc2cc(C(=O)N3CCN(c4nc(-c5cnc(NC(=O)CN6CCOCC6)cc5C(F)(F)F)nc(N5CCOCC5)n4)CC3)oc12
30.7

* * *

biological target: Poly [ADP-ribose] polymerase 1 (Homo sapiens, UniProt P09874)
Sequence (P09874 whole entry): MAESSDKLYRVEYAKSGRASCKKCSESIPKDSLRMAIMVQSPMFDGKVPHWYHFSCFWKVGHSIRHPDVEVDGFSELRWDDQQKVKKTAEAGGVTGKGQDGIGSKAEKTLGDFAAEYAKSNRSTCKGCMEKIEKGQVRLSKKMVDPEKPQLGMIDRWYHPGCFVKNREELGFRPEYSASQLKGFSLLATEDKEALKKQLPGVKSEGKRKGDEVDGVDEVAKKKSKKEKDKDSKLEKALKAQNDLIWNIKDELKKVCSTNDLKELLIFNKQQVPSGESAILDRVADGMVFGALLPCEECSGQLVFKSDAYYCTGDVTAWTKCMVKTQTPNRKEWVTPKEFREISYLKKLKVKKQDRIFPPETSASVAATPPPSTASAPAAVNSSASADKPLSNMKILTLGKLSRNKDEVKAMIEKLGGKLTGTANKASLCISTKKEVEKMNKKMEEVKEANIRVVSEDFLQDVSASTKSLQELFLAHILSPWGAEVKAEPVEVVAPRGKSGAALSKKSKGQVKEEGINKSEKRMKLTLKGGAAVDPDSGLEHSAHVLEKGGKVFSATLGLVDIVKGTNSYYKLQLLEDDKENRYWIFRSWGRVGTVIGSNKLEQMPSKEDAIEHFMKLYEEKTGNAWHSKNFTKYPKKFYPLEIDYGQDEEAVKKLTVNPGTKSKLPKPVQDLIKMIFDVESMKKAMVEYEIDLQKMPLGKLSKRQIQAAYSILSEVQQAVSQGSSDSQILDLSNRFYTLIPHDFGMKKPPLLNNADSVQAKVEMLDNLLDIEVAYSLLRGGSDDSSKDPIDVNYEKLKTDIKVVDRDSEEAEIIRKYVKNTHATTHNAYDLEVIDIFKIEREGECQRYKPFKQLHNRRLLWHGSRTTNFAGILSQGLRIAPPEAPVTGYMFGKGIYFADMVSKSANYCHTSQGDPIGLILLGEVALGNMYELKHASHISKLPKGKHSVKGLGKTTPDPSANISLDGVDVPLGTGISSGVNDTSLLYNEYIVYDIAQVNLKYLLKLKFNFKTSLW
We begin with a simple list: items and their reported IC50.
The response must be a number in nM with no trailing unit.

cpd.smiles	measured.target	units.symbol	IC50
NC(=O)c1cccc2cc(C(=O)N3CCN(c4nc(-c5ccc(N)nc5)nc(N5CCOCC5)n4)CC3)oc12	Poly [ADP-ribose] polymerase 1 (Homo sapiens, UniProt P09874)	nM	10.8
NC(=O)c1cccc2cc(C(=O)N3CCN(c4nc(-c5cnc(N)nc5)nc(N5CCOCC5)n4)CC3)oc12	Poly [ADP-ribose] polymerase 1 (Homo sapiens, UniProt P09874)	nM	5.8

Okay, now this molecule:
For Poly [ADP-ribose] polymerase 1 (Homo sapiens, UniProt P09874), give the measured IC50 of the entry NC(=O)c1cccc2cc(C(=O)N3CCN(c4nc(-c5cnc(NC(=O)CN6CCOCC6)cc5C(F)(F)F)nc(N5CCOCC5)n4)CC3)oc12
13.8

* * *

assay: Elimination half life in monkey liver microsomes measured after 1 hr; format: ADME, Macaca mulatta, Microsome; details: rhesus monkey, read-out: beta t1/2
measurement.label: half-life (min)
Enter your answer as a number in min; do not include the unit.

Identify the reported half-life for the following entry. NC(=O)c1cccc2cc(C(=O)N3CCN(c4nc(-c5cnc(NC(=O)CN6CCOCC6)cc5C(F)(F)F)nc(N5CCOCC5)n4)CC3)oc12
59.1

* * *

test: Intrinsic clearance in mouse liver microsomes measured after 1 hr; format: ADME, Microsome; settings: read-out: CLH
measurement.label: microsomal CLint (µL/min/mg)
A number alone suffices; assume µL/min/mg.

Supply reported microsomal CLint belonging to this molecule: NC(=O)c1cccc2cc(C(=O)N3CCN(c4nc(-c5cnc(NC(=O)CN6CCOCC6)cc5C(F)(F)F)nc(N5CCOCC5)n4)CC3)oc12
79.7

* * *

experiment: Elimination half life in mouse liver microsomes measured after 1 hr; assay type: ADME, Microsome; conditions: read-out: beta t1/2
measurement.label: half-life
Number plus unit, in that order.

Recall and state the measured half-life for NC(=O)c1cccc2cc(C(=O)N3CCN(c4nc(-c5cnc(NC(=O)CN6CCOCC6)cc5C(F)(F)F)nc(N5CCOCC5)n4)CC3)oc12 .
17.4 min
